system: Candida tropicalis; assay: In vitro antifungal activity against Candida tropicalis ATCC 28775 was measured; assay type: functional
Outcome measure: MIC (µg/mL)

Here is how some compounds turned out for MIC.
>>> numeric_readout("O=C1C(Cl)=C(Nc2ccc(Br)cc2)C(=O)c2[nH]c(-c3ccncc3)nc21")
12.5
>>> numeric_readout("O=C1C=CC(=O)c2[nH]c(-c3ccccn3)nc21")
100
>>> numeric_readout("Cc1ccc(NC2=C(Cl)C(=O)c3nc(-c4ccccn4)[nH]c3C2=O)cc1")
1.6

(A) O=C1C(Cl)=C(Nc2ccc(F)cc2)C(=O)c2[nH]c(-c3ccncc3)nc21
(B) COc1ccc(NC2=C(Cl)C(=O)c3nc(-c4ccccn4)[nH]c3C2=O)cc1
(C) O=C1C(Cl)=C(Nc2ccc(Cl)cc2)C(=O)c2[nH]c(-c3ccccn3)nc21
(D) Cc1ccc(NC2=CC(=O)c3[nH]c(-c4ccccn4)nc3C2=O)cc1
(E) O=C1C(Cl)=C(Nc2ccc(F)cc2)C(=O)c2[nH]c(-c3cccnc3)nc21
Put the compounds in ascending order of MIC. Write the labels out in the order the request specifies.
D, B, C, A, E
(D: 0.8 µg/mL, B: 1.6 µg/mL, C: 3.2 µg/mL, A: 6.3 µg/mL, E: 12.5 µg/mL)

(P) O=C1C(Cl)=C(Nc2ccc(F)cc2)C(=O)c2[nH]c(-c3ccccn3)nc21
(Q) COc1ccc(NC2=C(Cl)C(=O)c3nc(-c4ccncc4)[nH]c3C2=O)cc1
# argmax over MIC for candidates P and Q Selection: enter the item's label.
Q
(Q: 25 µg/mL, P: 3.2 µg/mL)

(P) O=C1C(Cl)=C(Nc2ccc(I)cc2)C(=O)c2[nH]c(-c3ccccn3)nc21
(Q) COc1ccc(NC2=C(Cl)C(=O)c3nc(-c4cccnc4)[nH]c3C2=O)cc1
(R) COc1ccc(NC2=CC(=O)c3[nH]c(-c4ccccn4)nc3C2=O)cc1
(S) Nc1nc(=O)[nH]cc1F
Given 4 compounds, produce a descending ranking by MIC. Write the labels out in the order the request specifies.
Q, S, P, R
(Q: 50 µg/mL, S: 6.3 µg/mL, P: 3.2 µg/mL, R: 0.8 µg/mL)

(a) CCOc1ccc(NC2=CC(=O)c3nc(-c4ccccn4)[nH]c3C2=O)cc1
(b) O=C1C(Cl)=C(Cl)C(=O)c2[nH]c(-c3ccccn3)nc21
(c) CCOc1ccc(NC2=C(Cl)C(=O)c3[nH]c(-c4ccccn4)nc3C2=O)cc1
(d) O=C1C(Nc2ccc(F)cc2)=CC(=O)c2[nH]c(-c3ccccn3)nc21
Given 4 compounds, produce a descending ranking by MIC. Write the labels out in the order the request specifies.
b, c, d, a
(b: 25 µg/mL, c: 3.2 µg/mL, d: 1.6 µg/mL, a: 0.8 µg/mL)

(1) O=C1C(Cl)=C(Nc2ccc(Cl)cc2)C(=O)c2[nH]c(-c3cccnc3)nc21
(2) O=C1C=C(Nc2ccc(I)cc2)C(=O)c2[nH]c(-c3ccccn3)nc21
(3) O=C1C(Cl)=C(Nc2ccc(Br)cc2)C(=O)c2[nH]c(-c3cccnc3)nc21
Given 3 compounds, produce a descending ranking by MIC. Write the labels out in the order the request specifies.
3, 1, 2
(3: 50 µg/mL, 1: 25 µg/mL, 2: 0.8 µg/mL)

(I) O=C1C=C(Nc2ccc(Cl)cc2)C(=O)c2[nH]c(-c3ccccn3)nc21
(II) O=C1C(Cl)=C(Nc2ccc(Cl)cc2)C(=O)c2[nH]c(-c3ccncc3)nc21
(III) O=C1C(Cl)=C(Nc2ccc(Br)cc2)C(=O)c2[nH]c(-c3ccccn3)nc21
Put the compounds in ascending order of MIC. Write the labels out in the order the request specifies.
I, III, II
(I: 0.8 µg/mL, III: 1.6 µg/mL, II: 3.2 µg/mL)

Recorded values, source ChEMBL document CHEMBL1146607.
